# ASSAY SYSTEM: Tyrosine-protein phosphatase non-receptor type 6 (Homo sapiens)
# Sequence (P29350 whole entry, the tested form may be a part): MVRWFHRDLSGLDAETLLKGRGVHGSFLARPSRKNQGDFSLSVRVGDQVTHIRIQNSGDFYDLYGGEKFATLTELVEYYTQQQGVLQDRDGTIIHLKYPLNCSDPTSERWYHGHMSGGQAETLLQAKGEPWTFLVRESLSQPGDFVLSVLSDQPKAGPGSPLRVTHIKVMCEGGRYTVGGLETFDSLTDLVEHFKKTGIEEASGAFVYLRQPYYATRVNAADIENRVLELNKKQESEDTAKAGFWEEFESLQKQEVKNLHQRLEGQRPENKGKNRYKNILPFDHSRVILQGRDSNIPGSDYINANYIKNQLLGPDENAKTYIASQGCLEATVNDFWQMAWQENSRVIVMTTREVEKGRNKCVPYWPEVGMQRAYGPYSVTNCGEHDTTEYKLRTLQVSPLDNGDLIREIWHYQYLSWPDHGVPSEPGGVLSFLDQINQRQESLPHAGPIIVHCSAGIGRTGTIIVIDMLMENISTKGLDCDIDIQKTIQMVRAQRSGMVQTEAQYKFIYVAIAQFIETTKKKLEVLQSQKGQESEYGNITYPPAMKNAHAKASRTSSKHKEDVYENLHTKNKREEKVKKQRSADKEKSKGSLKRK
# ASSAY SUMMARY: Concentration required to stimulate SHP-1 enzymatic activity by 50%
# ASSAY SETUP: read-out: EC50
*1 amine or outer side, *2 acyl side, *3 side chain or, on linkers, in order; H or OH if unused. Where a SMILES comes first, the peptide text is derived from it. [ ]: non-standard residue; d: D form. X4 = O=C([C@@H](N[*:1])C(O)c1ccccc1)[*:2]; pY = N[C@@H](Cc1ccc(OP(=O)(O)O)cc1)C(=O)O; hPhe = N[C@@H](CCc1ccccc1)C(=O)O
Entries and their measured EC50 follow.
Give a bare numeral; the unit µM is implied.

Reference set, count: 3
MOLECULE	VALUE UNIT	EC50
CC(C)C[C@H](NC(=O)[C@@H](NC(=O)[C@H](CCc1ccccc1)NC(=O)[C@H](Cc1ccc(OP(=O)(O)O)cc1)NC(=O)[C@H](CC(N)=O)NC(=O)[C@H](CC(C)C)NC(=O)CNC(=O)[C@@H](N)CCC(=O)O)C(C)C)C(N)=O (H-EGLN[pY][hPhe]VL-NH2)	µM	140
CSCC[C@H](NC(=O)[C@H](Cc1ccc(OP(=O)(O)O)cc1)NC(=O)[C@H](CC(N)=O)NC(=O)[C@H](CC(C)C)NC(=O)CNC(=O)[C@@H](N)CCC(=O)O)C(=O)N[C@H](C(=O)N[C@@H](CC(C)C)C(N)=O)C(C)C (H-EGLN[pY]MVL-NH2)	µM	160
CC(C)C[C@H](NC(=O)[C@@H](NC(=O)[C@@H](NC(=O)[C@H](Cc1ccc(OP(=O)(O)O)cc1)NC(=O)[C@H](CC(N)=O)NC(=O)[C@H](CC(C)C)NC(=O)CNC(=O)[C@@H](N)CCC(=O)O)C(O)c1ccccc1)C(C)C)C(N)=O (some centres undefined) (H-EGLN[pY][X4]VL-NH2)	µM	220

--- query ---
In: Field request: EC50 | item: CSCC[C@H](NC(=O)[C@H](Cc1ccc(OP(=O)(O)O)cc1)NC(=O)[C@H](CC(N)=O)NC(=O)[C@H](CC(C)C)NC(=O)CNC(=O)[C@@H](N)CCC(=O)O)C(=O)N[C@H](C(=O)N[C@@H](Cc1ccccc1)C(N)=O)C(C)C (H-EGLN[pY]MVF-NH2)
Out: 140

* * *

Entries and their measured pKd follow.
# ASSAY SYSTEM: Tyrosine-protein phosphatase non-receptor type 6 (Homo sapiens)
# ASSAY SUMMARY: Dissociation constant for the interaction with the GST-N-SH2 domain of SHP-1
*1 amine or outer side, *2 acyl side, *3 side chain or, on linkers, in order; H or OH if unused. Where a SMILES comes first, the peptide text is derived from it. Bridges are numbered along the chain shown (N, C = ends). [ ]: non-standard residue; d: D form. X1 = O=C(CC[C@H](N[*:1])C(=O)[*:2])CN[*:3]; X4 = O=C([C@@H](N[*:1])C(O)c1ccccc1)[*:2]; X5 = O=C(CN[*:3])C[C@H](N[*:1])C(=O)[*:2]; pY = N[C@@H](Cc1ccc(OP(=O)(O)O)cc1)C(=O)O; hPhe = N[C@@H](CCc1ccccc1)C(=O)O; Nle = CCCC[C@H](N)C(=O)O; CO = O=C([*:1])[*:2]
To interpret pKd, take it as minus log10 of a concentration measured in moles per litre.

In: Field request: pKd | item: CSCC[C@@H]1NC(=O)[C@H](Cc2ccc(OP(=O)(O)O)cc2)NC(=O)[C@@H](NC(=O)[C@H](CC(C)C)NC(=O)CNC(=O)[C@@H](N)CCC(=O)O)CCCCNC(=O)NCC(=O)CC[C@@H](C(=O)N[C@@H](CC(C)C)C(=O)O)NC1=O (H-EGLK[pY]M[X1]L-OH; linker 4-7 via CO)
Out: 6.68

In: Field request: pKd | item: CSCC[C@@H]1NC(=O)[C@H](Cc2ccc(OP(=O)(O)O)cc2)NC(=O)[C@@H](NC(=O)[C@H](CC(C)C)NC(=O)CNC(=O)[C@@H](N)CCC(=O)O)CCCCNC(=O)NCC(=O)C[C@@H](C(=O)N[C@@H](CC(C)C)C(=O)O)NC1=O (H-EGLK[pY]M[X5]L-OH; linker 4-7 via CO)
Out: 6.96

In: Field request: pKd | item: CSCC[C@H](NC(=O)[C@H](Cc1ccc(OP(=O)(O)O)cc1)NC(=O)[C@H](CC(N)=O)NC(=O)[C@H](CC(C)C)NC(=O)CNC(=O)[C@@H](N)CCC(=O)O)C(=O)N[C@H](C(=O)N[C@@H](CC(C)C)C(N)=O)C(C)C (H-EGLN[pY]MVL-NH2)
Out: 5.84

In: Field request: pKd | item: CC(C)C[C@H](NC(=O)[C@@H](NC(=O)[C@H](CCc1ccccc1)NC(=O)[C@H](Cc1ccc(OP(=O)(O)O)cc1)NC(=O)[C@H](CC(N)=O)NC(=O)[C@H](CC(C)C)NC(=O)CNC(=O)[C@@H](N)CCC(=O)O)C(C)C)C(N)=O (H-EGLN[pY][hPhe]VL-NH2)
Out: 6.05

In: Field request: pKd | item: CCCC[C@H](NC(=O)[C@H](Cc1ccc(OP(=O)(O)O)cc1)NC(=O)[C@H](CC(N)=O)NC(=O)[C@H](CC(C)C)NC(=O)CNC(=O)[C@@H](N)CCC(=O)O)C(=O)N[C@H](C(=O)N[C@@H](Cc1ccccc1)C(N)=O)C(C)C (H-EGLN[pY][Nle]VF-NH2)
Out: 6.64

In: Field request: pKd | item: CC(C)C[C@H](NC(=O)[C@@H](NC(=O)[C@@H](NC(=O)[C@H](Cc1ccc(OP(=O)(O)O)cc1)NC(=O)[C@H](CC(N)=O)NC(=O)[C@H](CC(C)C)NC(=O)CNC(=O)[C@@H](N)CCC(=O)O)C(O)c1ccccc1)C(C)C)C(N)=O (some centres not stated) (H-EGLN[pY][X4]VL-NH2)
Out: 5.97

In: Field request: pKd | item: CC(C)C[C@H](NC(=O)[C@@H](NC(=O)[C@@H](NC(=O)[C@H](Cc1ccc(OP(=O)(O)O)cc1)NC(=O)[C@H](CC(N)=O)NC(=O)[C@H](CC(C)C)NC(=O)CNC(=O)[C@@H](N)CCC(=O)O)C(C)c1ccccc1)C(C)C)C(N)=O (stereo in doubt; 5a)
Out: 6.62

* * *

# ASSAY SYSTEM: Tyrosine-protein phosphatase non-receptor type 6 (Homo sapiens)
# ASSAY SUMMARY: Dissociation constant for the interaction with the GST-N-SH2 domain of SHP-1
*1 amine or outer side, *2 acyl side, *3 side chain or, on linkers, in order; H or OH if unused. Where a SMILES comes first, the peptide text is derived from it. [ ]: non-standard residue; d: D form. X4 = O=C([C@@H](N[*:1])C(O)c1ccccc1)[*:2]; pY = N[C@@H](Cc1ccc(OP(=O)(O)O)cc1)C(=O)O
Entries and their measured pKd follow.
To interpret pKd, take it as minus log10 of a concentration measured in moles per litre.

COMPOUND	ASSAY SYSTEM	pKd
CSCC[C@H](NC(=O)[C@H](Cc1ccc(OP(=O)(O)O)cc1)NC(=O)[C@H](CC(N)=O)NC(=O)[C@H](CC(C)C)NC(=O)CNC(=O)[C@@H](N)CCC(=O)O)C(=O)N[C@H](C(=O)N[C@@H](Cc1ccccc1)C(N)=O)C(C)C (H-EGLN[pY]MVF-NH2)	Tyrosine-protein phosphatase non-receptor type 6 (Homo sapiens)	6.00

In: Field request: pKd | item: CC(C)C[C@H](NC(=O)[C@@H](NC(=O)[C@@H](NC(=O)[C@H](Cc1ccc(OP(=O)(O)O)cc1)NC(=O)[C@H](CC(N)=O)NC(=O)[C@H](CC(C)C)NC(=O)CNC(=O)[C@@H](N)CCC(=O)O)C(C)c1ccccc1)C(C)C)C(N)=O (stereo in doubt; 5b)
Out: 6.80

In: Field request: pKd | item: CSCC[C@H](NC(=O)[C@H](Cc1ccc(OP(=O)(O)O)cc1)NC(=O)[C@H](CC(N)=O)NC(=O)[C@H](CC(C)C)NC(=O)CNC(=O)[C@@H](N)CCC(=O)O)C(=O)N[C@H](C(=O)N[C@H](C(N)=O)C(O)c1ccccc1)C(C)C (some centres undefined) (H-EGLN[pY]MV[X4]-NH2)
Out: 6.54

In: Field request: pKd | item: CC(C)C[C@H](NC(=O)[C@@H](NC(=O)[C@H](Cc1ccccc1)NC(=O)[C@H](Cc1ccc(OP(=O)(O)O)cc1)NC(=O)[C@H](CC(N)=O)NC(=O)[C@H](CC(C)C)NC(=O)CNC(=O)[C@@H](N)CCC(=O)O)C(C)C)C(N)=O (H-EGLN[pY]FVL-NH2)
Out: 6.16
